Readings of cytotoxicity at 70.5 h for the listed compounds
- experimental details: Human HepG2 cell viability assay in 384 well format
- Assay type: toxicity, cell-based
- Design: dose 125 nL, time 70.5 hour; concentration not given beside the values
- condition info: HepG2 cells, read-out: Inhibition
readout name: cytotoxicity at 70.5 h (%)

Cc1nn(C)c2cnn(CC(=O)NCc3cccs3)c12: -8.64
CC(C)CN1CCN(C)C2(CCN(c3nccs3)CC2)C1=O: 33.2
O=C(NCCn1cnc(C2CCCC2)cc1=O)c1ccc(=O)[nH]n1: -0.636
Cc1cnn(C2CCCN(C(=O)COc3ccc(C(N)=O)cc3)C2)c1 (stereo not drawn): -9.97
Cc1ccc(-c2cc(CNC(=O)N3CCC(O)CC3)on2)cc1: 0.512
CSCCCNC(=O)C(c1cccc(F)c1)N(C)C (stereo not drawn): -4.98
OC(COCc1ccc2c(c1)OCO2)CN1CC(n2cccn2)C1 (stereo not drawn): 3.04
Cc1noc(C)c1C1CCCN1C(=O)CN1C(=O)OC(C)(C)C1=O (stereo not drawn): 26.8
CCNc1ncc(CN(CCN(C)C)Cc2ccc(C)s2)cn1: -7.34
CN1Cc2ccccc2CC2(CCN(CCO)CC2)C1=O: 18
Cc1nn(C)cc1C(=O)NCc1csc(C2CC2)n1: 18.9
Cc1n[nH]c(CN2CCN(C(=O)C3CCC3)[C@@H]3CS(=O)(=O)C[C@@H]32)n1: 0.743
O=S(=O)(Cc1ccccc1)c1nnc(N2CCOCC2)s1: -9.13
CCC(NC(=O)CC(F)(F)F)c1ccccc1OCC(=O)N1CCCC1 (stereo not drawn): -7.99
Cc1cccnc1CN1CCN(CC(=O)N(C)C)[C@@H]2CS(=O)(=O)C[C@@H]21: -5.23
O=c1ccc2c([nH]1)CCC(NCc1ccc3c(c1)OCO3)C2 (stereo not drawn): -1.6
CC(CNC(=O)N1CCNC(=O)CC1)Cc1cccs1 (stereo not drawn): 0.139
CC(=O)N1C[C@H]2CNC[C@@]2(C(=O)NCCOc2ccccc2F)C1: 0.818
Cc1nc(-c2cccnc2)ncc1C(=O)N1CCCCC(N)C1 (stereo not drawn): -23.9
CO[C@H]1C[C@@H]2CN(C(=O)c3cccc4c3OCCO4)C[C@@H]2C1: 20.7
Cc1nnsc1CN1C[C@H]2CC[C@@H]1CN(Cc1ccc(F)cc1)C2: 27.1
CN(C)CC(=O)N1CCCC2(CCC(=O)N(CCc3c[nH]cn3)C2)C1 (stereo not drawn): -14.8
CNC(=O)C1CCN(C(=O)NCc2ccc(C)n2C)CC1: -4.71
